B1: HDV Ribozyme (parent)
chain: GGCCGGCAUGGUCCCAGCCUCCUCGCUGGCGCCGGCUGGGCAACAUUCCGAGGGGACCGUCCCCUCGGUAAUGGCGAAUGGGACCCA

Variants of: B1
Assay: self-cleavage, relative activity (ratio to wild type); higher = more cleavage; co-transcriptional
Entry flag: 1 (yes) if self-cleavage reaches 0.2; 0 (no) if it does not.

Lookup: Does self-cleavage meet or surpass 0.2 for GGCCCGCAUGGUCCCAGCCUCCUCGCUGGCGCCGGCUGGUCAACAUUCCGAGGGGACCGUCCCCUCGGUAAUGGCGAAUGGGACCCA [G5C G40U] ?
Found: 0 (no)

Lookup: Does self-cleavage meet or surpass 0.2 for GGCCGGUAUGGUCCCAGCCUCCUCGCUGGCGCCGGCUGGGCAACAUUCCGAGGGGACCGUCCCCUCGGUGAUGGCGAAUGGGACCCA [C7U A70G] ?
Found: 1 (yes)

Lookup: Does self-cleavage meet or surpass 0.2 for GGCCGGCAUGGUCCCAGCCUCCUCGCUGGCGCAGGCUGGGCAACAUUCCGAGGGGACCGUCCCCUUGGUAAUGGCGAAUGGGACCCA [C33A C66U] ?
Found: 1 (yes)

Lookup: Does self-cleavage meet or surpass 0.2 for GGCCGGCAUGGUCCCAGGCUCCUCGCUGGCGCCGGCUGGGCAACAUUCCGAGGGGACCGUCCCCUUGGUAAUGGCGAAUGGGACCCA [C18G C66U] ?
Found: 0 (no)

Lookup: Does self-cleavage meet or surpass 0.2 for GGCCGGCAUGGUCCCAGCCUCCUCGCUGGCGCCGGCUGGGCAACAUUCCGAGGGAACGGUCCCCUCGGUAAUGGCGAAUGGGACCCA [G55A C58G] ?
Found: 1 (yes)

Lookup: Does self-cleavage meet or surpass 0.2 for GGCCGGCAUGGUCCCAGCCUCCUCGCUGGCGCCGGCUGGGCAAUAUUCCGAGGGGACCGUCCCCUCGGUAAUGGCGCAUGGGACCCA [C44U A77C] ?
Found: 1 (yes)

Lookup: Does self-cleavage meet or surpass 0.2 for GGCCGGAAUGGUCCCAGCCUCCUCGCUGGCGCCGGCUGAGCAACAUUCCGAGGGGACCGUCCCCUCGGUAAUGGCGAAUGGGACCCA [C7A G39A] ?
Found: 0 (no)

Lookup: Does self-cleavage meet or surpass 0.2 for GGCCGGCAUGGUCCCAGCCUCCUCACUGGCGCCGGCUGGGCAACAUUCCGAGGGGACAGUCCCCUCGGUAAUGGCGAAUGGGACCCA [G25A C58A] ?
Found: 1 (yes)

Lookup: Does self-cleavage meet or surpass 0.2 for GGCCGGAAUGAUCCCAGCCUCCUCGCUGGCGCCGGCUGGGCAACAUUCCGAGGGGACCGUCCCCUCGGUAAUGGCGAAUGGGACCCA [C7A G11A] ?
Found: 0 (no)
